Tested on: FAB9
Test: qHTS profiling for inhibitors of Plasmodium falciparum proliferation (AID 504749); further: nearly all actives have a fitted effect of over 60% in size
Details: P. falciparum in erythrocytes, SYBR Green DNA, 72 h; series mostly up to 28.7 µM
Records with an inconclusive call do not appear. Calls of active or inactive are those of the source. The call rests on the fitted dose curve; in most records, active means well fitted inhibition curve with a large enough effect; inconclusive means small, poorly fitted or top-dose-only effect; inactive means flat fitted curve, though single readings scatter.
MEASUREMENT_NAME: outcome

Study these solved cases before continuing.
| MOLECULE | outcome |
| --- | --- |
| NC(N)=NS(=O)(=O)c1ccc(N)cc1 | inactive |
| Cc1onc(-c2ccccc2)c1-c1ccc(S(N)(=O)=O)cc1 | inactive |
| O[C@@H]1CO[C@H]2[C@@H]1OC[C@@H]2O | inactive |
| O=C(O)Cc1cn(-c2ccccc2)nc1-c1ccc(Cl)cc1 | inactive |
| Cc1cc(-n2nc3ccc(Cl)cc3n2)c(O)c(C(C)(C)C)c1 | inactive |
| NS(=O)(=O)c1cc(-c2nn[nH]n2)c(NCc2cccs2)cc1Cl | inactive |
| CC(C)CCCC(C)CCCC(C)CCCCC(C)CCCC(C)CCCC(C)C (configuration not stated) | inactive |
| CCCCC1(COC(=O)CCC(=O)O)C(=O)N(c2ccccc2)N(c2ccccc2)C1=O | inactive |
| OCC(O)CS (configuration not stated) | inactive |
| CC(=O)OCC(COC(C)=O)OC(C)=O | inactive |

Item Nc1ccc(C(=O)Oc2ccccc2)c(O)c1 : provide outcome
inactive

Item Nc1ncnc(Nc2ccccc2)n1 : provide outcome
inactive
